biological target: human BAFF (human, UniProt Q9Y275 82-285, limits assumed); assay: shotgun scan, phage display
Sequence (Q9Y275 82-285 limits assumed): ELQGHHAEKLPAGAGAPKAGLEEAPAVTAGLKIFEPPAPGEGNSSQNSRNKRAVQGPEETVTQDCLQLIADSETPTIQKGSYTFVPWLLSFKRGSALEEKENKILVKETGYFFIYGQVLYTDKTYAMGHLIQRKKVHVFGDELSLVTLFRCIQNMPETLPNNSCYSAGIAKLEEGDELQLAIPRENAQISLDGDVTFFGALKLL
Reported F (BAFF) values for the following binders.
Reported Property: F (BAFF)

SLSCRKEQGKFYDHLLRDCASCASICGQHPKQCAYFCENKLR (receptor, phage library variant, format as m9) [TACI_d2 I87A]; > 30
SLSCRKEQGKFYDHLLRDCISCASICGQHPKQCAYFCENALR (receptor, phage library variant, format as m9) [TACI_d2 K107A]; 1.1
SLSCRKEQGKFYDHVLRDCISCASICGQHPKQCAYFCENKLR (receptor, phage library variant, format as m9) [TACI_d2 L82V]; > 25
